- study-system: Calpain-2 catalytic subunit (Sus scrofa)
- Sequence (P43367 whole entry): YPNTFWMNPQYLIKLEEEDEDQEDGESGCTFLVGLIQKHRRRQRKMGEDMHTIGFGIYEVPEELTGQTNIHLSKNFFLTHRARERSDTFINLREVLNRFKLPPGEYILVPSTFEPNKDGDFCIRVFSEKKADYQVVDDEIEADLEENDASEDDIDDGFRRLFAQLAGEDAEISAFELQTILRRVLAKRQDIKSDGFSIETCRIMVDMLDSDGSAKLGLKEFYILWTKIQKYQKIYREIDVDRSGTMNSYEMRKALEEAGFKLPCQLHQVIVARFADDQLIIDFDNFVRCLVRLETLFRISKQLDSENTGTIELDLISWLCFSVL
- experiment-summary: m-calpain protease blockers, concentration series – biochemical, fluorogenic peptide substrate, dose response (AID 1420)
- Assay type: functional
Measured IC50 values are reported for all entries that follow.

Worked examples, 3 compounds total:
Oc1nc(-c2ccccc2Cl)nc2c1sc(=S)n2-c1ccccc1 : 41.7 µM (not active)
CCS(=O)(=O)NCC(c1cccnc1)N1CCN(c2ccc(OC)cc2)CC1 (stereo not given) : 24.7 µM (not active)
CCC(CC)C(=O)Nc1ccc(S(=O)(=O)Nc2nccs2)cc1 : 11.7 µM (not active)

Asked: Need IC50 of "CN(Cc1nc(-c2cnccn2)no1)Cc1[nH]nc2c1CCCC2" , thanks.
Given back: 7.73 µM (not active)

Asked: Need IC50 of "CCc1nc(C)ccc1OC(=O)C12CC3CC(CC(C3)C1)C2" , thanks.
Given back: 8.73 µM (not active)

----------
Measured IC50 values are reported for all entries that follow.
- study-system: UniProt P05186
- Sequence (P05186 whole entry): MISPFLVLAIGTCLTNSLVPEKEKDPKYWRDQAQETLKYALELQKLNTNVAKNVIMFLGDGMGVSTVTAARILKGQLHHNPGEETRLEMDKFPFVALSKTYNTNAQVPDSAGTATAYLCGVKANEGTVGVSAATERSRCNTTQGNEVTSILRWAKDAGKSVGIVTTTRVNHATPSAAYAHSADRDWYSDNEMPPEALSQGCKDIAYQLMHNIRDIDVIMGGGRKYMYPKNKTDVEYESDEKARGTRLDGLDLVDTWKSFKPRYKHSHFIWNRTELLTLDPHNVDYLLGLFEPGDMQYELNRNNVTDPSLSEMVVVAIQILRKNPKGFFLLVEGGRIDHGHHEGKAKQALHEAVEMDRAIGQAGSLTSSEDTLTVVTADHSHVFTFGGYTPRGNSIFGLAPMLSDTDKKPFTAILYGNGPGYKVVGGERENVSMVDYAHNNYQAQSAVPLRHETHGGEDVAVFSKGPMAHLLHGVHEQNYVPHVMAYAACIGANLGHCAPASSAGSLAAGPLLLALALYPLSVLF
- experiment-summary: TNAP enzyme inhibition by screening hits, dose response, selectivity assay for mouse IAP inhibitor project, biochemical, human TNAP, uHTS hits (AID 488906)
- Assay type: functional
Active and inactive are the calls of the source.

C#CCOCCOCCOCCNc1nc(N2CCN(C(=O)CCCCCCCCCCNC(=O)[C@H](CO)n3cc(CCCSC)nn3)CC2)nc(N2CCN(C(=O)CCCCCCCCCCNC(=O)[C@H](CCCN=C(N)N)n3cc(C[C@@H](C)CC)nn3)CC2)n1 : 32.3 µM (active)

Asked: Need IC50 of "C#CCOCCOCCOCCNc1nc(N2CCN(C(=O)CCCCCCCCCCNC(=O)[C@@H](CCSC)n3cc(CCO)nn3)CC2)nc(N2CCN(C(=O)CCCCCCCCCCNC(=O)[C@H]([C@@H](C)CC)n3cc(CCCCN=C(N)N)nn3)CC2)n1" , thanks.
Given back: 58.7 µM (active)

Asked: Need IC50 of "Oc1ccc(-c2csc(Nc3cccc4ccccc34)n2)cc1O" , thanks.
Given back: 78 µM (active)

Asked: Need IC50 of "Cc1cc(F)ccc1S(=O)(=O)Nc1ccc(O)c(Sc2nnc[nH]2)c1" , thanks.
Given back: 5.44 µM (active)

----------
Measured EC50 values are reported for all entries that follow.
- study-system: Beta-galactosidase (Escherichia coli)
- Sequence (Q8VNN2 whole entry): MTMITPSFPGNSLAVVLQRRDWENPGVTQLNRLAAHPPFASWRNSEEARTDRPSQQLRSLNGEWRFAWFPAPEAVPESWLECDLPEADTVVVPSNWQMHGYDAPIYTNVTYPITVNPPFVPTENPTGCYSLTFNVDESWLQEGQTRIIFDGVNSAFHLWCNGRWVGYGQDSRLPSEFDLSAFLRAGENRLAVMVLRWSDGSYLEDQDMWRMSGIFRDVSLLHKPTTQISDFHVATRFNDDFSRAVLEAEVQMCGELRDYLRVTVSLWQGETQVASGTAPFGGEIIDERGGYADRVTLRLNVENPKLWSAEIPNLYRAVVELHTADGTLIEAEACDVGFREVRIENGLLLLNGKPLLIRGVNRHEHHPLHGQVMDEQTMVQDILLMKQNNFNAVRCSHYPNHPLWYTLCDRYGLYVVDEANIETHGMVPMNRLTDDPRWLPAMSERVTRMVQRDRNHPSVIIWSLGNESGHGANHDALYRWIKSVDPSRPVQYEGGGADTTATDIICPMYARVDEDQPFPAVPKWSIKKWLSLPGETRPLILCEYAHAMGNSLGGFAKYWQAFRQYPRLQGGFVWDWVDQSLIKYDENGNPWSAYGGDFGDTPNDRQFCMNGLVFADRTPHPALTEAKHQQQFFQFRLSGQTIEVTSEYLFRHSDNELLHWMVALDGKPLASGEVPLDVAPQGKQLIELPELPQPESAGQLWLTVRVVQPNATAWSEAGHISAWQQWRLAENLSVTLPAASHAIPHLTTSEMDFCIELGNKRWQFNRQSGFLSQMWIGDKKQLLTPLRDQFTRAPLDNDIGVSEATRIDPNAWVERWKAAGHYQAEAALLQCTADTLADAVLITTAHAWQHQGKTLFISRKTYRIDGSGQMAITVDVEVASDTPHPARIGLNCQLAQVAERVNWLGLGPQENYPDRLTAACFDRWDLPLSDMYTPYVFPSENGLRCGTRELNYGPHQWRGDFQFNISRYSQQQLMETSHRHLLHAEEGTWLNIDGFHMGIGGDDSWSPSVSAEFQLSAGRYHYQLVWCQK
- Format: functional
Activity calls are given as the source filed them.

Worked examples, 3 compounds total:
O=C(CSC1=NNC(c2ccccn2)S1)Nc1ccccc1 (centres undefined) : > 31.5 µM (inactive)
COc1ccccc1N=Nc1nc(-c2ccccc2)c(-c2ccccc2)[nH]1 : 23.9 µM (active)
CSC(=S)N/N=C(\C)c1ccccc1 : > 31.5 µM (inactive)

Shift focus to the following entry.
Asked: Lab request: please report EC50 under test system Beta-galactosidase (Escherichia coli) for "CCCOc1cccc(-c2cc(C(=O)N/N=C/c3ccccn3)c3ccccc3n2)c1"
Given back: > 31.5 µM (inactive)

----------
Measured EC50 values are reported for all entries that follow.
- study-system: Protein RecA (Mycobacterium tuberculosis, UniProt P9WHJ3)
- experiment-summary: Fluorescence Cell-Free Homogeneous Dose Retest to Identify Inhibitors of RecA-Intein Splicing Activity. [Related pubchem assays (depositor defined):AID2097, AID2223, AID489010, AID492950]
- Type: functional
The source made the active and inactive calls.

CC(C)OC(=O)CN1C(=O)C(=O)c2ccccc21 : 8.52 µM (active)
COc1cccc(CN2CCN(Cc3ccc(C#CC(C)(C)O)s3)CC2CCO)c1 (centres undefined) : > 380 µM (inactive)
O=C(C/C=N\OCc1c(Cl)cccc1Cl)Oc1ccc(Cl)cc1Cl : 7.56 µM (active)

Shift focus to the following entry.
Asked: Need EC50 of "O=c1[nH]c(N2CCOCC2)cc2ccccc12" , thanks.
Given back: > 380 µM (inconclusive)

----------
- experiment-summary: viability of uninfected HEp-2 cells – cell-based, HTS, cytotoxicity control for RSV inhibitor project, dose response (AID 2410)
- Format: functional
- conditions: human respiratory syncytial virus
Activity calls are given as the source filed them.
measured-property: CC50

O=C(CCCn1c(=S)[nH]c2cc3c(cc2c1=O)OCO3)N1CCN(c2ccc(F)cc2)CC1 : 26.2 µM (active)
O=C(O)c1cccc(COc2cccc3ccccc23)c1 : 31.1 µM (active)
O=C(O)c1cc(-c2ccc3ccccc3c2)nc2ccc(F)cc12 : 12.1 µM (active)

Asked: Need CC50 of Cc1ccccc1NC(=O)C1CCCN1S(=O)(=O)c1cccc2cccnc12 (configuration not stated) , thanks.
Given back: > 50 µM (active)

Asked: Need CC50 of "COc1ccc(/C=C/c2nc(N)nc(-c3ccccc3O)n2)cc1OC" , thanks.
Given back: > 50 µM (active)

Asked: Need CC50 of "Cc1cc(C)n(-c2ccc3nnc(C)n3n2)n1" , thanks.
Given back: 22 µM (active)

Asked: Need CC50 of O=C(c1cccc(N2C(=O)C3C4C=CC(C4)C3C2=O)c1)N1CCN(c2ccccc2Cl)CC1 (configuration not stated) , thanks.
Given back: > 50 µM (active)

----------
- study-system: Kappa-type opioid receptor (Homo sapiens, UniProt P41145)
- Sequence (P41145 whole entry): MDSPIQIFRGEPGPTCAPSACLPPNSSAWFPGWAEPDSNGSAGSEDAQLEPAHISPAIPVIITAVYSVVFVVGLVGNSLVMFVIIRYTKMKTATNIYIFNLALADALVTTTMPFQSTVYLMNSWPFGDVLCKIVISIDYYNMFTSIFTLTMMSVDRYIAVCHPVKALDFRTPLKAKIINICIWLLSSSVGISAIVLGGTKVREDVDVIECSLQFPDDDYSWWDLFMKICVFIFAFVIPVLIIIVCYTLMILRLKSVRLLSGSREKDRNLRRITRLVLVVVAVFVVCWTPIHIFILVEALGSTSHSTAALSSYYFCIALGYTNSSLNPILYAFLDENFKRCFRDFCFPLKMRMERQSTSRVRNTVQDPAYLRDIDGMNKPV
- Assay type: functional
The source made the active and inactive calls.
Log the outcome using a class from active, inactive

Would you please look over these solved cases?
CCCOc1cccc(-c2cc(C(=O)N/N=C/c3ccccn3)c3ccccc3n2)c1 : active
COc1ccccc1N=Nc1nc(-c2ccccc2)c(-c2ccccc2)[nH]1 : inactive
O=C(CSC1=NNC(c2ccccn2)S1)Nc1ccccc1 (centres undefined) : inactive

Alright, here's another molecule for you.
Asked: Recorded test outcome, item "CSC(=S)N/N=C(\C)c1ccccc1"
Given back: active

----------
Measured IC50 values are reported for all entries that follow.
- experiment-summary: blockers of CRF-binding protein–CRF-R2 complex – cell-based, uHTS hits, 384-well, dose response (AID 651639)
- Type: functional, Homo sapiens
- conditions: read-out: IC50_Mean
The source made the active and inactive calls.

Cc1ccc(SCc2noc(-c3c(C)noc3C)n2)cc1 : > 20 µM (inactive)
Cc1cc(O)nc(SCC(=O)Nc2ccc(Br)cc2)c1C#N : 15.4 µM (active)
Cc1ccc(S(=O)(=O)Nc2ccc3cc([N+](=O)[O-])ccc3c2[N+](=O)[O-])cc1 : 15 µM (active)

Asked: Need IC50 of "CCn1nc(C)c(NC(=O)Nc2cccc(Cl)c2Cl)c1C" , thanks.
Given back: 11 µM (active)

----------
Measured IC50 values are reported for all entries that follow.
- study-system: UniProtKB P49327
- Sequence (P49327 whole entry): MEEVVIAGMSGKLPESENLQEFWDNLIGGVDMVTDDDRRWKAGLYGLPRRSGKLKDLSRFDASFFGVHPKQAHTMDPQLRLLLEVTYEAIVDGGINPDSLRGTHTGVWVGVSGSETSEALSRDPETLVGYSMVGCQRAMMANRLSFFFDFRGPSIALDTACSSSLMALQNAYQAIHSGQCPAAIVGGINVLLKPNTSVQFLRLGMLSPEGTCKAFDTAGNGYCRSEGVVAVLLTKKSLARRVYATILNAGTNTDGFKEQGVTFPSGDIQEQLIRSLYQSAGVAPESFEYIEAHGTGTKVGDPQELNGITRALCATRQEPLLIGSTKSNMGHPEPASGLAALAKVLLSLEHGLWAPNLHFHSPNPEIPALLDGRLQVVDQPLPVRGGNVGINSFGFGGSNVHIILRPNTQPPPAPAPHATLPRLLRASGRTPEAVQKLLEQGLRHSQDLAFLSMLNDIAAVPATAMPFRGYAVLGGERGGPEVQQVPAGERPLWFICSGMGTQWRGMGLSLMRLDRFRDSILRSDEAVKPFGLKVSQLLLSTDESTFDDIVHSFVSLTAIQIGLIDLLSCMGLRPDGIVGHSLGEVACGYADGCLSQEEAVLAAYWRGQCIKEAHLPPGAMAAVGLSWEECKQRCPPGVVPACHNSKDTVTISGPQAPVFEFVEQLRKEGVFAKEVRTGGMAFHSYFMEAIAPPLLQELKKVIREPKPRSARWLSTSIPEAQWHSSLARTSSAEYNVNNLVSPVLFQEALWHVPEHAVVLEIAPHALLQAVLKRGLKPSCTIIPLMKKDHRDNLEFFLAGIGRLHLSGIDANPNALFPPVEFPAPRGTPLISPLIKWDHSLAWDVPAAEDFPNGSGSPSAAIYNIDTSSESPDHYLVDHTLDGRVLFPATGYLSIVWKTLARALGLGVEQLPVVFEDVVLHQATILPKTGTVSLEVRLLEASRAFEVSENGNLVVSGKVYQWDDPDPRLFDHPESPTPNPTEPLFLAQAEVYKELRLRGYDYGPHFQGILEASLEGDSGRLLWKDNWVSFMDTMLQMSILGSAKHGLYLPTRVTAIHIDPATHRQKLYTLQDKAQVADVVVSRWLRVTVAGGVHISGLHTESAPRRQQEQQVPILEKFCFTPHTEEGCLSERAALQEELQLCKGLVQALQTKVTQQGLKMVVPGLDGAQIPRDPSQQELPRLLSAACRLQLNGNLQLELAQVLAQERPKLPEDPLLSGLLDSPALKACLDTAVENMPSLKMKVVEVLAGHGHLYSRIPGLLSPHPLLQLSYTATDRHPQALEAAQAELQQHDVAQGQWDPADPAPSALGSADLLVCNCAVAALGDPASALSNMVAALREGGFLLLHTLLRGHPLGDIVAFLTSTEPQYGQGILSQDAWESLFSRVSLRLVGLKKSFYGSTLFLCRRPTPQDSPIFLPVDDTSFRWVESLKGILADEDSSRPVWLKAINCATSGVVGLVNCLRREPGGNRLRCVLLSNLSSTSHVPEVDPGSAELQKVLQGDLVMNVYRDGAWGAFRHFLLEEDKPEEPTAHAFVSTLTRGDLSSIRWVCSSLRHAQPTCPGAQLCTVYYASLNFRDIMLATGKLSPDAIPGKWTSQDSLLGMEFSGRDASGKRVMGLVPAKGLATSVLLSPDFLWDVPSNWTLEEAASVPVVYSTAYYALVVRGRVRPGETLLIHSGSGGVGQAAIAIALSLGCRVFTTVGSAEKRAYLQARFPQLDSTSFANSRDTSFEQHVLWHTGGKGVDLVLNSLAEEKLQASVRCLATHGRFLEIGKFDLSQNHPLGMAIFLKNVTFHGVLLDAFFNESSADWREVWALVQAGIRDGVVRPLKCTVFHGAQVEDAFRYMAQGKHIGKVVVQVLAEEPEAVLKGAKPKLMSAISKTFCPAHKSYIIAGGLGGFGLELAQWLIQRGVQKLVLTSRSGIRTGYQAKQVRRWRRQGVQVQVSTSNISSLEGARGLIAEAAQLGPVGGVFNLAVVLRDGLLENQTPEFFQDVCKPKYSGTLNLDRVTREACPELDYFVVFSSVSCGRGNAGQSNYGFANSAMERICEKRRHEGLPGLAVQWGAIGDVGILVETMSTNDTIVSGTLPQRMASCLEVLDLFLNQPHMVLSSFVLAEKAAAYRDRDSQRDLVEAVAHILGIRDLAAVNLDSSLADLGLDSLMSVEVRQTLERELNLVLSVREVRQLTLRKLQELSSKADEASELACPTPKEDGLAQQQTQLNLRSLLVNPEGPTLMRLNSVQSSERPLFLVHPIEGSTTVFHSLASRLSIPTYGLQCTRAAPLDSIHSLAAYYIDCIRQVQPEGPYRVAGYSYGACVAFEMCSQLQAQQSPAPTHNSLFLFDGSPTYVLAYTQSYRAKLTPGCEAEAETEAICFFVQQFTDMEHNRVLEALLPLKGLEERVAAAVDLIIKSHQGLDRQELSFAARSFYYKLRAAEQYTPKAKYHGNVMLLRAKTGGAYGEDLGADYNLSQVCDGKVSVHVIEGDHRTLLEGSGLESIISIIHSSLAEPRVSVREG
- experiment-summary: inhibition of human FAS-TE enzyme activity – biochemical, kinetic fluorescence intensity, dose response (AID 624326);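 further: rate of fluorescence rise from hydrolysis of a fluorogenic O-methyl fluorescein ester substrate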
- Format: functional
The source made the active and inactive calls.

COc1ccc(CC(=N)NOC(=O)c2cccc([N+](=O)[O-])c2)cc1 : 14.6 µM (active)

Asked: Lab request: please report IC50 under test system UniProtKB P49327 for "CCOc1ccccc1NC(=O)c1nc(S(=O)(=O)Cc2cccc(C)c2)ncc1Cl"
Given back: 3.06 µM (active)

Asked: Lab request: please report IC50 under test system UniProtKB P49327 for O=C1CC(N2CCN(c3ccc(S(=O)(=O)N4CCOCC4)cc3)CC2)C(=O)N1Cc1ccccc1 (stereo not drawn)
Given back: 7.53 µM (active)
